Target: KDR (VEGFR2) (Homo sapiens (Human))
Sequence (P35968 20-1356): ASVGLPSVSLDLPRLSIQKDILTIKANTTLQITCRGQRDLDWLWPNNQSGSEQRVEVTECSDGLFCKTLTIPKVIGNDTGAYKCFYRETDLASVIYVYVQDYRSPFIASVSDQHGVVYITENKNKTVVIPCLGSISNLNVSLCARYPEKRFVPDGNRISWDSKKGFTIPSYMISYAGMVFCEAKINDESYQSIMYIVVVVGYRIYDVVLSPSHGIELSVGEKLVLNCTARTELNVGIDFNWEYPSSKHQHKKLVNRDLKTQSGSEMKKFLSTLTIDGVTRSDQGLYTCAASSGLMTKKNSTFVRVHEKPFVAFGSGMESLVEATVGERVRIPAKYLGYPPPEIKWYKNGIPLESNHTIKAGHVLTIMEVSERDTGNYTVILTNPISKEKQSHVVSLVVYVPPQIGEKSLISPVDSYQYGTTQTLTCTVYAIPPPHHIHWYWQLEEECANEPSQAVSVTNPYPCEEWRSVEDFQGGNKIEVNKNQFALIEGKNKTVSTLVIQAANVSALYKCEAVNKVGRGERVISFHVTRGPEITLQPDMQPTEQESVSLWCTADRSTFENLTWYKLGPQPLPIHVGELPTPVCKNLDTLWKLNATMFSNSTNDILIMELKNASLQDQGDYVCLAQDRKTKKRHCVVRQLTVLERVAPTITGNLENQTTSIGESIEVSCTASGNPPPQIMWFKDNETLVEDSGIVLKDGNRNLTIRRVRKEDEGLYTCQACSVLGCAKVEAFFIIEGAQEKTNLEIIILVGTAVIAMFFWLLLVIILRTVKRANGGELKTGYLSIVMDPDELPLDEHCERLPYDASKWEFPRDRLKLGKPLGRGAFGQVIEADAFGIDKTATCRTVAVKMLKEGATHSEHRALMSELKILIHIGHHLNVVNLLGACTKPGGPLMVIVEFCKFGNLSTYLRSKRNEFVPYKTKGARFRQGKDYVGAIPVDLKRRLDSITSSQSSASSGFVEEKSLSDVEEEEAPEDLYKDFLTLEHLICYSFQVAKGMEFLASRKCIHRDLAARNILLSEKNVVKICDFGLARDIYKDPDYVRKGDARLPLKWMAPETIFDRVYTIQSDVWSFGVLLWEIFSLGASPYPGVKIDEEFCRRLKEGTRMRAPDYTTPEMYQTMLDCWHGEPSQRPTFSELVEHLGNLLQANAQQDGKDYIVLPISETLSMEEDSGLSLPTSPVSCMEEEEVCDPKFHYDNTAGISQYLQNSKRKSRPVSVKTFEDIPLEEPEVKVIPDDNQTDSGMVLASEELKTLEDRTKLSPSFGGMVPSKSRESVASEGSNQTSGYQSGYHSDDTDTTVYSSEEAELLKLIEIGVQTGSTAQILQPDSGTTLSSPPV
Test: Z′-LYTE kinase inhibition assay (Invitrogen), KDR
Assay type: biochemical
Conditions: 1 μM compound, Z′-LYTE method; read-out: % inhibition at 1 μM against KDR
PROPERTY_LABEL: inhibition at 1 µM

Worked cases, inhibition at 1 µM given:
* O=C(Nc1cccc(C(=O)c2ccc3ncc(N4CCCC4)nc3c2)c1)c1cccc(C(F)(F)F)c1 [Compound C122] | > 89%
* O=C(Nc1cccc(F)c1)Nc1ccc(F)c(C(=O)c2ccc3ncc(N4CCOCC4)nc3c2)c1 [Compound C035] | 70 to 89%
* O=C(Nc1cccc(C(F)(F)F)c1)Nc1ccc(F)c(C(=O)c2ccc3ncc(N4CCOCC4)nc3c2)c1 [Compound C036] | > 89%

// next entry
Reported inhibition at 1 µM for O=C(Nc1cc(F)cc(Cl)c1)Nc1cc(F)cc(C(=O)c2ccc3ncc(N4CCOCC4)nc3c2)c1 [Compound C060] was < 70%
